Listed next: entries and their corresponding normalized RNA/DNA level without ligand (log10).
B1: library; a variant is named by its letters at N, in order (parent)
chain: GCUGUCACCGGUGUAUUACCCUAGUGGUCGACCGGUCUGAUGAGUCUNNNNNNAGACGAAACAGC

- Variants of: B1
- assay-remarks: normalized RNA/DNA level without ligand (relative to sTRSVctl = 100) (log10 (% of sTRSVctl)); ligand: hypoxanthine (xanthine aptamer); higher = less ribozyme self-cleavage, higher mRNA level
- settings: HEK293T, reporter: mCherry (pCS4076), ligand present: no
measured-property: normalized RNA/DNA level without ligand (log10)

mutation-code	quantitative-result
AGCAGG	1.4
GCAAAU	1.75
GGCGUU	1.97
CCUGUU	1.9
CGACGG	1.41
AACGCC	1.84
AGUUCC	1.89
CUAAGA	1.84
CUGCCU	1.92
UCGGGA	1.23
CGGCCA	1.95
UGUCGG	1.54
CUUUUC	1.92
UGCUUA	1.95
AAACCC	1.83
CGGGGA	1.76

Data provenance: the supplement of paper PMC6757056
